Ref: patent EP0405748A1

Tested on: varicella zoster virus (VZV; Ellen strain)
Assay: Plaque Reduction Test for Varicella Zoster Virus
Type: cell-based
Settings: Human alphaherpesvirus 3, MRC5, MRC-5 cells, read-out: IC₅₀ against VZV
quantity_name: IC50 (µg/mL)
Quick reminder: number only, in µg/mL, skip the unit.

IC50 lookup needed for Nc1nc2c(ncn2OC[C@H](CO)OCP(=O)(O)O)c(=O)[nH]1 , thanks.
52

Please give the result for Nc1nc2c(ncn2OC[C@@H](CO)OCP(=O)(O)O)c(=O)[nH]1 too.
17

Please give the result for Nc1nc2c(ncn2OC[C@H]2COP(=O)(O)CO2)c(=O)[nH]1 too.
13

Please give the result for Nc1nc2c(ncn2OC[C@@H]2COP(=O)(O)CO2)c(=O)[nH]1 too.
24
